Target: UniProt P9WFF7
Conditions: read-out: IC50 against cis-DPPS; substrate not stated
Observation Type: IC50 (nM)

INSERT INTO assay_data (mol, observation_type, quantitative_readout) VALUES
  ('C(=C\c1cc2ccc(C3=NCCN3)cc2[nH]1)/c1cc2ccc(C3=NCCN3)cc2[nH]1', 'IC50', 1300);

----------
Target: cis-DPPS (Rv2361c) (Mycobacterium tuberculosis)
Conditions: read-out: IC50 against DPPS; cis-FPP as substrate
Observation Type: IC50 (nM)

INSERT INTO assay_data (mol, assayed_target, value_unit, quantitative_readout) VALUES
  ('O=P(O)(O)C(O)(Cc1cccc(-c2cccc3c2oc2ccccc23)c1)P(=O)(O)O', 'cis-DPPS (Rv2361c) (Mycobacterium tuberculosis)', 'nM', 610);

----------
Target: cis-DPPS (Rv2361c) (Mycobacterium tuberculosis, UniProt P9WFF7)
Sequence (P9WFF7 whole entry): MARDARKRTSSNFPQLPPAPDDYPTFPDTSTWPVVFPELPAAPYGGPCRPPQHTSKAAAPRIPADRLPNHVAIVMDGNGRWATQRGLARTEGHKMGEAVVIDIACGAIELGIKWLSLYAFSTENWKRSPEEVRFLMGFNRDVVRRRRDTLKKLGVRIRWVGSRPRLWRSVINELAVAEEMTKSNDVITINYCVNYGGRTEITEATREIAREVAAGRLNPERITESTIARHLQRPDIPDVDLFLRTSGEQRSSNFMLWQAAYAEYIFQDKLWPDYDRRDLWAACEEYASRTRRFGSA
Conditions: read-out: IC50 against DPPS; depending on substrate
Observation Type: IC50

INSERT INTO measurements (mol, result) VALUES
  ('C(=C\c1cc2ccc(C3=NCCN3)cc2[nH]1)/c1cc2ccc(C3=NCCN3)cc2[nH]1', '0.5 to 20 µM');
